- experimentalTarget: Retinoic acid receptor RXR-alpha (Homo sapiens)
- assayRemarks: Antagonist activity at RXRalpha expressed in COS1 cells assessed as inhibition of NEt-TMN-induced luciferase activity after 18 hrs by reporter gene assay relative to LGD1069
- Assay type: functional, cell-based
- testParameters: COS-1
The source made the active and inactive calls. The rule behind the calls is not given here.
Outcomes: true (active), false (inactive)

[
  {
    "sampleSmiles": "CCCCCCOc1cc2c(cc1N(C)c1ncc(C(=O)O)cn1)C(C)(C)CCC2(C)C",
    "experimentalTarget": "Retinoic acid receptor RXR-alpha (Homo sapiens)",
    "answerLabel": "true"
  },
  {
    "sampleSmiles": "CCN(c1ccc(C(=O)O)cn1)c1cc(OCC(C)C)c(C(C)C)cc1/C=C/c1ccccc1",
    "experimentalTarget": "Retinoic acid receptor RXR-alpha (Homo sapiens)",
    "answerLabel": "true"
  },
  {
    "sampleSmiles": "CCN(c1ccc(C(=O)O)cn1)c1cc(OCC(C)C)c(C(C)C)cc1Nc1ccccc1",
    "experimentalTarget": "Retinoic acid receptor RXR-alpha (Homo sapiens)",
    "answerLabel": "true"
  },
  {
    "sampleSmiles": "CCN(c1ccc(C(=O)O)cn1)c1cc(OCC(C)C)c(C(C)C)cc1-c1ccccc1",
    "experimentalTarget": "Retinoic acid receptor RXR-alpha (Homo sapiens)",
    "answerLabel": "false"
  }
]
